List of Kd values.
- tested_on: human TYK2 (JH2domain-pseudokinase) (Homo sapiens (Human))
- Sequence (P29597 556-888): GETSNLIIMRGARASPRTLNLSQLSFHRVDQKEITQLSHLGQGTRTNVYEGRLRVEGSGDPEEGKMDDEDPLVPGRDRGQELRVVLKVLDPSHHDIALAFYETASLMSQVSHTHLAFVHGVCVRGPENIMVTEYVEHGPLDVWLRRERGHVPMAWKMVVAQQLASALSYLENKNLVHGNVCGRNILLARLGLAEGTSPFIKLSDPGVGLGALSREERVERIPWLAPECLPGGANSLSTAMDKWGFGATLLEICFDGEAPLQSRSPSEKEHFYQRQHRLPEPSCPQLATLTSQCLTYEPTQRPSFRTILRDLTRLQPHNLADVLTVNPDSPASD
- assay_overview: TYK2 JH2 Domain Binding Assay (KINOMEscan)

Example cases with answers are listed next.
molecule | Kd
CNc1cc(Nc2cccn([C@H]3CCC[C@@H]3OC)c2=O)nc2c(C(=O)NC3CC3)cnn12 [I-437] | 0.2 to 1 nM
CNc1cc(Nc2cccn(C3CCOCC3)c2=O)nc2c(C(=O)N[C@H]3CC[C@@H](O)C3)cnn12 | < 0.2 nM

Then this molecule:
QUERY: Fill in: Kd of `CNc1cc(Nc2cccn(-c3cc(C)on3)c2=O)nc2c(C(=O)NC3CC3)cnn12` is ___
RESULT: < 0.2 nM
